Biological target: Leukotriene B4 receptor (Cavia porcellus)
Experiment: Compound was evaluated for Leukotriene B4 receptor binding, obtained from radioligand binding assay using guinea pig spleen cell membrane
ATTRIBUTE MEASURED: IC50

Lab note: need IC50 with Leukotriene B4 receptor (Cavia porcellus) for entry `CCOC(=O)/C=C/c1cn(CC(=O)N(C)CCc2ccccc2)c2ccc(OCc3ccccc3)cc12` , please look it up. > 300 nM
